Examples of molecules with documented growth follow.
# Tested on: OVCAR-4 ovarian
# Measurement protocol: NCI-60 one-dose screen, 48 h (100 = growth as untreated, 0 = no growth, -100 = all killed)
# Measurement parameters: 10 µM
About 83,000 compounds went through this panel and 20% of them were active in at least one assay; those are over-represented in the sample as a whole.
Quantity name: growth (%)

CCCc1nc(C(C)(C)O)c(C(=O)O)n1Cc1ccc(-c2ccccc2-c2nn[nH]n2)cc1    100
CCn1c(SCc2ccc(C)cc2)nnc1-c1nn(-c2ccc(Cl)cc2Cl)c(-c2ccc(Cl)cc2)c1C    16.9
COc1ccc2c(c1)OC(N)=C(C#N)C2c1cc(OC)c(OC)c(OC)c1 (centres undefined)    39.8
IC(I)I    108
